Test system: T-47D breast
Assay: NCI tumour cell line growth inhibition, 48 h
Reported TGI values for the following molecules.
Measurement label: TGI (µM)

Molecule	System	Reading qualifier	Reported result
C=C1C(=O)O[C@H]2C[C@@H]1CC/C(C)=C/CC/C(C)=C/CC[C@@]2(C)O	T-47D breast	>	100
O=[N+]([O-])c1ccc(C2CC(c3ccccc3)=Nc3ccccc3S2)cc1 (stereo not given)	T-47D breast	>	100
CCN(CC)CCN(C(=Nc1ccccc1)N1CCCCC1)c1ccccc1	T-47D breast	=	9.92
O=C(O)c1nc2ccc(C(F)(F)F)cc2nc1NCc1ccc(Cl)c(Cl)c1	T-47D breast	=	35.2
O=C(/C=C/c1ccc(C(F)(F)F)cc1)c1c([O-])on[n+]1-c1ccccc1	T-47D breast	=	3.82

----------
Tested on: DU-145 prostate
Experiment: NCI tumour cell line growth inhibition, 48 h
Measurement label: log10 of TGI (log10 of the value in µM)

Compound	Reported result
Cn1cc(C2=C(c3c4n(c5ccccc35)CCC(CN)C4)C(=O)NC2=O)c2ccccc21 (stereo not drawn)	0.85
O=[N+]([O-])c1ccc(C2=Nn3c(nnc3-c3ccc(Cl)cc3)SC2)o1	1.60
CO[C@H]1C[C@H](O[C@H]2CC[C@]3(C=O)[C@H]4CC[C@]5(C)[C@@H](C6=CC(=O)OC6)CC[C@]5(O)[C@@H]4CC[C@]3(O)C2)O[C@H](C)[C@H]1O[C@@H]1O[C@H](CO)[C@@H](O)[C@H](O)[C@H]1O	-4.78
COc1ccc(OC)c(C2CCc3c(cnc4nc(N)nc(N)c34)C2)c1 (stereo not drawn)	1.45
CN(C)CCCSc1nc2c(c(=N)n1-c1ccccc1)c(=S)n(-c1ccccc1)c(=S)n2-c1ccccc1	0.48

----------
Test system: RPMI-8226 leukemia
Assay: NCI tumour cell line growth inhibition, 48 h
# TGI >= 20 µM gives Fulfilled, anything below gives Not fulfilled

Molecule	Answer label
CO[C@H]1C[C@H](O[C@H]2CC[C@]3(C=O)[C@H]4CC[C@]5(C)[C@@H](C6=CC(=O)OC6)CC[C@]5(O)[C@@H]4CC[C@]3(O)C2)O[C@H](C)[C@H]1O[C@@H]1O[C@H](CO)[C@@H](O)[C@H](O)[C@H]1O	Not fulfilled
CCC1CCN=C(NS(=O)(=O)c2cc(C)c(Cl)cc2S)N1 (centres undefined)	Fulfilled
C=C(C)[C@@]1(O)CCCC[C@@H]1CC(Sc1ccccc1)Sc1ccccc1	Fulfilled
Cc1ccc(-c2n[nH]c(=O)n2NC(=O)c2ccccc2C(=O)O)cc1	Fulfilled
Cc1[nH]c(=O)[nH]c(=O)c1/C=C/C(=O)NC(CO)CS(=O)Cc1ccccc1 (centres undefined)	Fulfilled
CCCNCC(=O)O[C@]1(CC)C(=O)OCc2c1cc1n(c2=O)Cc2cc3ccccc3nc2-1	Not fulfilled
CCOC(=O)C(C(=O)OCC)c1ccc([N+](=O)[O-])o1	Fulfilled
CC1=NN(c2ccc(S(=O)(=O)O)cc2)C(=O)/C1=C/c1ccc(Cl)cc1	Fulfilled

----------
Tested on: NCI-H522 lung
Assay: NCI tumour cell line growth inhibition, 48 h

Compound	TGI
C=C1C(=O)O[C@H]2C[C@@H]1CC/C(C)=C/CC/C(C)=C/CC[C@@]2(C)O	79 µM
COC(=O)c1ccccc1CC(Cc1ccc2c(c1)CCC2)C(=O)OC (configuration not stated)	> 100 µM
CCOC(=O)C1(C(=O)OCC)C[C@@H](C)[C@@H](O)C1	> 100 µM
COc1cc2c(cc1Cc1cccc(Cl)c1F)c(=O)c(C(=O)O)cn2[C@@H](CO)C(C)C	11.7 µM
O=C(NC(=O)c1ccccc1[N+](=O)[O-])Nc1ccc(Oc2ncc(Cl)cn2)c([N+](=O)[O-])c1	1.68 µM
O=c1c2ccccc2nc(/C=C(\O)c2ccncc2)n1-c1ccc(Cl)cc1	> 100 µM
O=C1CC2(CCC3=C(O2)c2ccccc2NC(=O)C3)C(=O)c2ccccc2N1 (configuration not stated)	> 100 µM
C=CCN1C[C@H](C)N([C@@H](c2ccc(C(=O)N3CCCCC3)cc2)c2cccc(OC)c2)C[C@H]1C	55 µM
CC(=O)Nc1c(I)c(NC(C)=O)c(I)c(C(=O)O)c1I	> 100 µM
CCSc1cc2c(cc1O)CC[C@@H]1[C@@H]2CC[C@]2(C)[C@@H](O)CC[C@@H]12	19.5 µM
CCC(O)C1Cc2c(C)cc3c(c2O1)C(=O)c1ccccc1C3=O (configuration not stated)	51.6 µM
COc1cc2cc(C(=O)Nc3cc4n(n3)-c3ccccc3C4)[nH]c2c(OC)c1OC	4.13 µM
O=c1/c(=C/c2ccc([N+](=O)[O-])o2)sc2n1[C@@H](c1ccc(Cl)cc1)C=C(c1cc(F)c(Cl)cc1Cl)N=2	49.2 µM
CC(C)(C)OC(=O)NC(Cc1ccc(O)cn1)C(=O)O (configuration not stated)	> 100 µM
N#CCCCCCOCCOCCOCCOCCOCCCCCC#N	> 100 µM
COc1ccc(Nc2cc(C)nc(NCc3ccccc3)n2)cc1	19.2 µM
CC(=O)Oc1ccc2cc(Oc3ccc(Cl)c(Cl)c3)c(=O)oc2c1	46.5 µM
CN(C)CCCNC(=O)CCNC(=O)c1cc(NC(=O)c2cc(NC(=O)c3cc(NC(=O)c4nccn4C)cn3C)cn2C)cn1C	97 µM
CCOP12(OCC)NC(=O)OC1(C(F)(F)F)c1ccccc1O2 (configuration not stated)	> 100 µM
O=C1C=CC2(C=C1)CCNC1=C2C(=O)c2ccccc2C1=O	> 100 µM
Cn1c(=O)c2c(nc3sc4c(n32)C(=O)c2c(O)ccc(O)c2C4=O)n(C)c1=O	0.369 µM
NC1CCCCC1N.O=[Se]([O-])[O-].[Pt+4] (configuration not stated)	11.2 µM
OCCCNc1ccnc2cc(Cl)ccc12	> 100 µM
CCCCNC(=O)C1C(=O)N(CCCC)C(=O)/C1=N\N (configuration not stated)	> 100 µM
O=[N+]([O-])c1ccc(C2CC(c3ccccc3)=Nc3ccccc3S2)cc1 (configuration not stated)	> 100 µM
COc1ccc(NC(=O)CC/C(CC(=O)c2ccco2)=N/NC(N)=S)cc1	> 100 µM
COC(=O)C1=C(OC(=O)c2ccccc2)C(C(=O)OC)[C@@]2(O)[C@@H](C(=O)OC)[C@H](C)C[C@@H]1[C@@H]2C(=O)OC (some centres not stated)	33 µM
OC[P+](CO)(CO)C12CC3CC(CC(C3)C1)C2	> 100 µM
N#Cc1c(N2CCOCC2)nc(=S)[nH]c1-c1ccccc1	> 100 µM
Cc1cc(O)cc(C)c1/C=C/c1cncc(C(N)=O)c1	3.84 µM
Cc1occc1C(=S)Nc1ccc(Cl)c(/C=N/OC(C)(C)C)c1	24.8 µM
CCCCCCCCCCCC(=O)N1CCN(C(C)=O)CC1	38.4 µM
